assay.summary: solvent given as SMILES
measurement.setup: in CO
measured.quantity: absorption maximum (nm)

| smiles.record | unit.info | quantitative.result |
| --- | --- | --- |
| C(=C\c1c[nH]cn1)/c1cc[n+]2ccc(/C=C/c3c[nH]cn3)cc2c1 | nm | 430 |

(I) O=C(O)CC[N+]1=c2cc3c(cc2CCC1)=Cc1c(c2cc4c5c(c2oc1=O)CCCN5CCC4)O3
(II) Cc1cc(C)c(B(c2cc(-c3c(C)cc(C)cc3C)sc2-c2sc(-c3c(C)cc(C)cc3C)cc2P(=O)(c2ccccc2)c2ccccc2)c2c(C)cc(C)cc2C)c(C)c1
[Q] // pick larger absorption maximum from pair: I vs II In your reply, give the label of the chosen option.
[A] I
(I: 617 nm, II: 370 nm)

(1) CC1(C)C2=[N+](CCCCCC(=O)NCCNC(=O)CCCCCN3/C(=C/C=C/C=C/C=C/2)C(C)(C)c2cc(S(=O)(=O)[O-])ccc23)c2ccc(S(=O)(=O)[O-])cc21
(2) COc1ccc(C(=O)/C=C2\C(=O)Nc3ccccc32)cc1
[Q] Record comparison, field absorption maximum: mark the lower of 1 and 2 . Lab log: write the label of the selected item as the result.
[A] 2
(2: 343 nm, 1: 755 nm)

(a) CC1(C)C(/C=C/C=C/C=C/C=C2/N(CCC(=O)O)c3ccc4ccccc4c3C2(C)C)=[N+](CCC(=O)O)c2ccc3ccccc3c21
(b) Cc1ccc(-c2nc(-c3cc([N+](=O)[O-])ccc3O)[nH]c2-c2ccc(C)cc2)cc1
[Q] // pick larger absorption maximum from pair: a vs b Indicate which entry you chose by stating its label.
[A] a
(a: 792 nm, b: 284 nm)

(P) CC1(C)CC(NCc2ccc3ccc4cccc5ccc2c3c45)CC(C)(C)N1[O]
(Q) CC1(C)C(/C=C/C2=C(Cl)C(=C/C=C3/N(Cc4ccc([N+](=O)[O-])cc4)c4ccccc4C3(C)C)/CCC2)=[N+](Cc2ccc([N+](=O)[O-])cc2)c2ccccc21
[Q] Hello, I am sorting some records. Could you say if P or Q has the smaller absorption maximum value? Please respond with the label that marks your chosen entry.
[A] P

(1) CCOC(=O)C1=CN(c2ccccc2)C=C(C(=O)OCC)C1
(2) Cc1ccccc1C1=C2C=c3c(oc4ccc(F)cc34)=[N+]2[B-](F)(F)n2c1cc1c3cc(F)ccc3oc12
[Q] Between 1 and 2 , whose recorded absorption maximum is greater? Output the label that corresponds to your choice.
[A] 2
(2: 574.5 nm, 1: 380 nm)

The reported numbers originate from the Deep4Chem optical property database.
